Study Target: T1, human SLC34A2 (human, UniProt O95436 1-690)
T1 construct: whole, on cells; also called human solute carrier 34 A2; NaPi2b
T1 sequence (looked up): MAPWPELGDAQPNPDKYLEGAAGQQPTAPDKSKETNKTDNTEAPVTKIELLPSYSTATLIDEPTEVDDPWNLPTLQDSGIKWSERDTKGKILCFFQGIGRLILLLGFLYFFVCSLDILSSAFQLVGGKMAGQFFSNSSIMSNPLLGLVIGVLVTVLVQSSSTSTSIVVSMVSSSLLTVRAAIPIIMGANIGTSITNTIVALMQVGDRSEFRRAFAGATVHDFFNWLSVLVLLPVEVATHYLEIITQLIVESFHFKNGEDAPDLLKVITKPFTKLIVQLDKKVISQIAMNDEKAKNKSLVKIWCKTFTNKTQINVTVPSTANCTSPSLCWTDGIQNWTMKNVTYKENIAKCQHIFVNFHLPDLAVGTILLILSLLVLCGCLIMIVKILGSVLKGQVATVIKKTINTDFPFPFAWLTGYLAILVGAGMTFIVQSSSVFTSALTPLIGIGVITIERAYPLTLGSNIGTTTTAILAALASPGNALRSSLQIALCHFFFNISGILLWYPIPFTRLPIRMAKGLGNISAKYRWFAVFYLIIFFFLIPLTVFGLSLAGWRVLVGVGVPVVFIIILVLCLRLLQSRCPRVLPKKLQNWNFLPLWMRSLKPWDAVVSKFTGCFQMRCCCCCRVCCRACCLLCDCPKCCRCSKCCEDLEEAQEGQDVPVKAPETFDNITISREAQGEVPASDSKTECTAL
Procedure Text: FACS, HEK293/human SLC34A2 cells
Sorting guide: entries reporting Top (MFI) beneath 30000 MFI go in the Yes pile, the rest go in the No pile.

Exercise: Just wondering, is Top (MFI) of 91C9F1.p1 hIgG1 (antibody, V domains shown, PTM-derisked chimeric, hIgG1; also called 91C9F1.pl hIgG1) VH: EVQLQQSGPELVKPGTSVKISCKTSGFFFTEYIIHWVKQSHGRSLEWIGGIIPNNDVTNYKQNFRGKAALTADKSSNTAYMELRSLTSEDSAVYYCARWRNAYYSAMDSWGQGTSVTVSS VL: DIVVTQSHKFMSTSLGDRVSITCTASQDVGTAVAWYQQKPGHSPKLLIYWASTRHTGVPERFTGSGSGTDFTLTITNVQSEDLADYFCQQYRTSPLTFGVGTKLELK below 30000 MFI?
Solution: Yes

Exercise: Just wondering, is Top (MFI) of xi91C9F1 hIgG1 (antibody, V domains shown, chimeric, hIgG1) VH: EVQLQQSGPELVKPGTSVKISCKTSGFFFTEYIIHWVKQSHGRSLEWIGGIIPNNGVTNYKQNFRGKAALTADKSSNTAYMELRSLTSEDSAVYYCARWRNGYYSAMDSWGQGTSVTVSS VL: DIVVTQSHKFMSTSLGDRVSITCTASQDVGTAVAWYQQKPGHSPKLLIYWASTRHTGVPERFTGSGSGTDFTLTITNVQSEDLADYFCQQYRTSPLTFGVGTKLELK below 30000 MFI?
Solution: Yes

Exercise: Just wondering, is Top (MFI) of xi90G10H7 hIgG1 (antibody, V domains shown, chimeric, hIgG1) VH: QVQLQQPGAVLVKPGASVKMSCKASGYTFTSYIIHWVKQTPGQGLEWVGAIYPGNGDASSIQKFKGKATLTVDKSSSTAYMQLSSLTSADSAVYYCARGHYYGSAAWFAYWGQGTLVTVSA VL: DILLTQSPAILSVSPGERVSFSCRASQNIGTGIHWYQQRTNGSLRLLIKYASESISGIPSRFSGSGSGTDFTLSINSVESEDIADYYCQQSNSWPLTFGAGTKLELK below 30000 MFI?
Solution: No

Exercise: Just wondering, is Top (MFI) of 30H9B8F9 VH_P1/VL hIgG1 (antibody, V domains shown, PTM-derisked chimeric, hIgG1; that P1 is the N=>S version follows from the humanized .p1 chains; also called 30H9B8F9.p1 hIgG1) VH: QVQLQQPGAELVKPGASVKMSCKTSGYTFTTNNMHWVKQTPGQGLEWIGAIYPGSGATAYNQKFKGKATLTADKSSSTAYMQLSSLTSEASAVYYCARGMYGHGAMDYWGQGTSVIVSS VL: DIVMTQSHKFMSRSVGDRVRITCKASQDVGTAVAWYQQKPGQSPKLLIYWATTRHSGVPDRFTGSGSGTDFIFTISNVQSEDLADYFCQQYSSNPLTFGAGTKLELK below 30000 MFI?
Solution: No

Exercise: Just wondering, is Top (MFI) of xi30H9B8F9 hIgG1 (antibody, V domains shown, chimeric, hIgG1) VH: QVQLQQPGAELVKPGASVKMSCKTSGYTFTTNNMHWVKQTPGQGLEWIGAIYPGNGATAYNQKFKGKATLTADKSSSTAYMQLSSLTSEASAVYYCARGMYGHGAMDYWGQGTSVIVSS VL: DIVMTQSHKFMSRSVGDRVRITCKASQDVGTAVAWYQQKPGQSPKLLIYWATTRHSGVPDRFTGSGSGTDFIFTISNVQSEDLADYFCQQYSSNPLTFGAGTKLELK below 30000 MFI?
Solution: No
